# Test system: RARb:RXRa (NR concentration 270 nM, RXRa partner concentration 90 nM)
# Protocol Summary: PBM binding z-score (relative to random genomic background probes); higher = stronger binding; sequences stand for … in GC…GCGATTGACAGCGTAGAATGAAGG
Categories are defined by ranges of PBM binding z-score, namely low = under 0.9, moderate = from 0.9 up to 2, high = 2 and over

Which class is correct for the following sequence? "AATACAGGTTCATCGTAGGCCAGAGTACGCACAG"
moderate

Into which category would you place "GTACCAAGGTGAATAGGTCGTTGTTGAGTAGGCG" ?
moderate

Exam item: assign "TCTTGTAGATCAACAGGAGGTTAAGAATGATCGA" to the correct category.
low

Which bin should I file "TTACCAAGGTGAGCTGAAGTCGTTGATCCAACTC" under?
moderate

Bin? "CCTCGGAGGACAACAGGAGGTTAGAGCTGCCAGA"
moderate

Lab note: sort "TCTCGGAGGACTCGAAGGTCAGAGCTTTCCAGAG" into the matching PBM binding z-score band.
high

Which class holds "CCTTACGAGTCACTCCAGGTTATAGCATCGGAGT" ?
low

In plain terms, what class is "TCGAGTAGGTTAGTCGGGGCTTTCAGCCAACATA" ?
low

Categorize the following entry: "GCGACTGGGGCAAAGAAGGTTACCATAAGGTTGG"
moderate

Lab note: which band did "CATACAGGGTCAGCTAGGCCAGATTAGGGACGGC" land in?
high

Class? Entry: "GCTTACTGGTCAAAGGTTATAGCATGAATAGAAT"
high

Band for the recorded PBM binding z-score of "ACTCTTAGTTGACTTAGGGCAACCGATACGACGC" ?
moderate

Given "GCTATTAGTTGCAAGGGCAACCGAATGATTCTCG" , name the class its PBM binding z-score places it in.
moderate

Assign a category based on measured PBM binding z-score for "TAGCCTTGGTCATTCAGGGGCCAGTATAGAAAGC" and give only the class name.
moderate

Using the reported PBM binding z-score, which band applies to "GCGACTGGGGCATAAGCAGGTTACCATAACTTAA" ?
low

Which category fits this record: "CAAACTAGGTCACAAAGGTCAAAGTCCGTGCGTA"
high

Each sequence maps to one class by PBM binding z-score. Which class for "TCATATAGGTAAAGGTGCAAGTCGAACGATATGA" ?
low

The entry to classify is "CCTTACGGGTCACTGACAGGTTATATCATTTGGA" ; which class holds it?
high

Class? Entry: "ACTAGCAGTCCAAGTTTGGGTCACTCAAACAAAG"
moderate

Which class holds "CGAACTAGGTCATCCAGGACAGTGAGTACATTGA" ?
high

Lab log: "AGAATGAGGTTATACGTAAATCAGGGAAGAAAGT" — assign PBM binding z-score category
moderate

Class label required: "TCTTGTAGATCAATAGAGGTTAAGCAAGTGCGCT"
low

Record "GGAACGAGGGCATTCGAGTTGATAGCCTGGCGAT" — which class?
moderate

Could you place "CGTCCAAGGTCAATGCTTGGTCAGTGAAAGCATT" in its proper category? Many thanks.
high

Place this sequence in its band: "CCGACTGGGGCAAGGTTACCAGAACGCACAGCCA"
moderate

Band for "ATATGTAGGTTACATCCGGGTAATTCAGGCTATG" ?
moderate

Could you tell me which band "ACAGACAGGTGATGAAGGTAAATCAGGCTATCAT" belongs to?
low

Please classify: "ATATGTACGTTATCGGGTCATTCAGTTTGCGCAT"
moderate

Class? Entry: "ATCTCTAGGTAAAGTTGAGTGAAAGATCGATAGA"
low

Category of "CGAACTAGGTCACAGAGGTCAAAGTCCGTGCGTA" , please.
high

Which bin, given its PBM binding z-score, does "ACTATTAGTTGACTTAGGGCTACCGATACGACGC" occupy?
low

Sort into band: "CGAACTAGGTCATCCAGGCCAGTGAATACATTGA"
high

Category of "ATACCAAGGTGATCGTGAGGCCGTTGATACTAAC" , please.
low

Class label required: "TTACTAAGGTGAGCTGAGGTCGTTGATCCAACTC"
high

Place this sequence in its band: "CAAACTAGGTCACGGAGGTCAAAGTCCGTGCGTA"
high

Lab note: which band did "CCTACTGGGCCACAGGTCATTGATTCCAATGCTC" land in?
high

Assign a bin to "TCTTGTAGATCAATACAGGTTAAGAAAGTGCGCT"
low

Which class holds "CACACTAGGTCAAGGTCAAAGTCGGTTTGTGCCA" ?
high

Hey, which category is "CTCGAAACGTCGTGCTCAGGTGAGTATACCAAAC" in, do you know?
low

Category of "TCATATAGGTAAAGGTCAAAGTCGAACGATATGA" :
high

Hi, small favor: classify "CGAACTAGGTCAGAAAAGGACAGTGAAGGATGAT" by its PBM binding z-score when you get a moment.
high

Exercise: read the entry "ATCGAAAGGTCGTGAGATGAGTATACAGAAAGGC" and state which class it falls under.
high

Field: class (PBM binding z-score) — entry: "TAGCCTACGTCATTGGGCCAGTATAGTACGCATC"
low

Dear colleague, I would appreciate it if you could identify the bin for "CGTCCAAGGTCAATGCTACGTCAGTGAAAGCATT" and reply at your convenience.
high

Please report the category associated with "CCTGCTAGGCCATGGTCAGCTAATCTACAGTATG" , nothing else.
moderate

* * *

# System: THRa homodimer (NR concentration 90 nM)
# Protocol Summary: PBM binding z-score (relative to random genomic background probes); higher = stronger binding; sequences stand for … in GC…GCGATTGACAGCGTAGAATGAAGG
Metric: PBM binding z-score
Answer using only a numeral; do not append any unit.

Consider "GCTAGTTGGTCAGTAAAAGGCCACACACCGGTCG" . Its measured PBM binding z-score is -0.175

According to the records, this sequence "TCGAGTAGGTTACCAATGGGGCATTCATCTTTCT" displays PBM binding z-score of -0.282

The reported PBM binding z-score of the sequence "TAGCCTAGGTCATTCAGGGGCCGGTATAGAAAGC" was 0.635

Reported PBM binding z-score ( "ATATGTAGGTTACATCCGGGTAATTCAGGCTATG" ) = 0.727

# PBM binding z-score of "TCTAGTTGGTCAAAGGTCACAAACTCGAAATGCG" = 1.73

Summary for this sequence, "AGAACGAGGTTATTAAGATCAGGGAATTGCGGTC" : PBM binding z-score is 0.227

// sample "TCTGCTAGGTCAACGATGGTCCGCTAATCTGCTA" , its PBM binding z-score was 0.713

Given item "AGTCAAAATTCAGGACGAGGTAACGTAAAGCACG" , the value recorded as its PBM binding z-score is 1.64

Lab note: "CCTACTGGGCCACGAAGGGTCATTGATTCAGTGA" gave PBM binding z-score of -0.121

The sequence "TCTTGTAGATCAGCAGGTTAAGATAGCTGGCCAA" showed PBM binding z-score equal to -0.238

# PBM binding z-score of "GGAACGAGGGCATTCGAGTCGATAGCATGGCGAT" = -0.885

Summary for this sequence, "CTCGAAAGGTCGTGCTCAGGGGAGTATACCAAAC" : PBM binding z-score is 0.415

Sure, the documented PBM binding z-score for "CCTCGGAGGATAGAAGGTCAGAGCTGTCCGCTTT" is -0.386

What the record says about "AGAATGAGATTATTAAGATCAGGGAATTGCGGTC" : PBM binding z-score is -0.66

The recorded PBM binding z-score for entry "TAGCCTAGGTCATTCGGGCCAGTATAGTGTCGGC" equals 1.11

Memo: "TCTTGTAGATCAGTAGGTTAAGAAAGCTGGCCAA" , reported PBM binding z-score: 0.0296

PBM binding z-score in this record for "TCTGCTACGTCAACGATGGTCAGCTAATCTGCTA" : -0.92

PBM binding z-score reported for this sequence "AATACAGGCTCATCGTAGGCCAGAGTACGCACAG" : -0.199

* * *

# System: LXRb homodimer (NR concentration 270 nM)
# Protocol Summary: PBM binding z-score (relative to random genomic background probes); higher = stronger binding; sequences stand for … in GC…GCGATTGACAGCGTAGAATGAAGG
Metric: PBM binding z-score
Number only, no unit.

Item: "CAAACTAGGTCACGAAAGGTCACAGTCGAATGAC" | PBM binding z-score: 1.64

The value of PBM binding z-score measured for the sequence "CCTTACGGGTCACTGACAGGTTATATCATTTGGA" turned out to be -0.0554

The measured PBM binding z-score associated with "ACAGACAGGTGAGGAAGGTAACTCAGGCTATCAT" reads -0.143

src = the supplement of paper PMC6555819
